- experimental.system: human acetyl-CoA carboxylase 2 (ACC2) (Homo sapiens)
- Construct: The cDNA encoding amino acids 144 to 2458 of human acetyl-CoA carboxylase 2; made in house; host or cells: Sf9 insect cells (baculovirus, pFastBac1)
- assay.details: Acetyl-CoA carboxylase enzyme assay (malonyl-CoA formation by LC/MS/MS)
- Format: biochemical
- conditions: recombinant human ACC2 (aa 144-2458); read-out: IC50 ACC2
This listing pairs compounds with measured IC50.
measured.attribute: IC50 (nM)

| compound | unit.abbreviation | modifier.sign | quantitative.readout |
| --- | --- | --- | --- |
| Cc1c(-c2ccc(CCC(=O)O)cc2)n(C)c2cc(S(=O)(=O)N[C@H]3CC[C@H](C(=O)N4CCOC[C@@H]4C4CC4)CC3)ccc12 [Example 484] | nM | < | 10 |
| Cc1cc(-c2ccc3cc(S(=O)(=O)N[C@H]4CC[C@H](C(=O)NC(c5ccccc5)C(C)(C)O)CC4)ccc3n2)cc(C)n1 (stereo partly shown) [Example 253] | nM | = | 20 |
| C[C@@H](NC(=O)[C@H]1CC[C@H](NS(=O)(=O)c2ccc3[nH]c([C@@H]4CC(F)(F)CN4)nc3c2)CC1)c1ccc(F)cc1 [Example 118] | nM | = | 1750 |
| COCCN(C(=O)[C@H]1CC[C@H](NS(=O)(=O)c2ccc3[nH]c(-c4ccccc4)nc3c2)CC1)C(C)C [Example 675] | nM | = | 105 |
| CCOc1ccc2cc(S(=O)(=O)N[C@H]3CC[C@H](C(=O)N[C@@H](c4ccccc4)[C@@H](C)O)CC3)ccc2n1 [Example 37] | nM | = | 75 |
| C[C@@H](NC(=O)[C@H]1CC[C@H](NS(=O)(=O)c2ccc3nc(OC4CCC4)ccc3c2)CC1)c1ccc(F)cc1 [Example 51] | nM | = | 101 |
| C[C@@H](NC(=O)[C@H]1CC[C@H](NS(=O)(=O)c2cnc3c(c2)NCCN3)CC1)c1ccc(F)cc1 [Example 33] | nM | = | 140 |

* * *

- experimental.system: human acetyl-CoA carboxylase 2 (ACC2) (Homo sapiens, UniProt O00763)
- Construct: The cDNA encoding amino acids 144 to 2458 of human acetyl-CoA carboxylase 2; made in house; host or cells: Sf9 insect cells (baculovirus, pFastBac1)
- Sequence (O00763 144-2458): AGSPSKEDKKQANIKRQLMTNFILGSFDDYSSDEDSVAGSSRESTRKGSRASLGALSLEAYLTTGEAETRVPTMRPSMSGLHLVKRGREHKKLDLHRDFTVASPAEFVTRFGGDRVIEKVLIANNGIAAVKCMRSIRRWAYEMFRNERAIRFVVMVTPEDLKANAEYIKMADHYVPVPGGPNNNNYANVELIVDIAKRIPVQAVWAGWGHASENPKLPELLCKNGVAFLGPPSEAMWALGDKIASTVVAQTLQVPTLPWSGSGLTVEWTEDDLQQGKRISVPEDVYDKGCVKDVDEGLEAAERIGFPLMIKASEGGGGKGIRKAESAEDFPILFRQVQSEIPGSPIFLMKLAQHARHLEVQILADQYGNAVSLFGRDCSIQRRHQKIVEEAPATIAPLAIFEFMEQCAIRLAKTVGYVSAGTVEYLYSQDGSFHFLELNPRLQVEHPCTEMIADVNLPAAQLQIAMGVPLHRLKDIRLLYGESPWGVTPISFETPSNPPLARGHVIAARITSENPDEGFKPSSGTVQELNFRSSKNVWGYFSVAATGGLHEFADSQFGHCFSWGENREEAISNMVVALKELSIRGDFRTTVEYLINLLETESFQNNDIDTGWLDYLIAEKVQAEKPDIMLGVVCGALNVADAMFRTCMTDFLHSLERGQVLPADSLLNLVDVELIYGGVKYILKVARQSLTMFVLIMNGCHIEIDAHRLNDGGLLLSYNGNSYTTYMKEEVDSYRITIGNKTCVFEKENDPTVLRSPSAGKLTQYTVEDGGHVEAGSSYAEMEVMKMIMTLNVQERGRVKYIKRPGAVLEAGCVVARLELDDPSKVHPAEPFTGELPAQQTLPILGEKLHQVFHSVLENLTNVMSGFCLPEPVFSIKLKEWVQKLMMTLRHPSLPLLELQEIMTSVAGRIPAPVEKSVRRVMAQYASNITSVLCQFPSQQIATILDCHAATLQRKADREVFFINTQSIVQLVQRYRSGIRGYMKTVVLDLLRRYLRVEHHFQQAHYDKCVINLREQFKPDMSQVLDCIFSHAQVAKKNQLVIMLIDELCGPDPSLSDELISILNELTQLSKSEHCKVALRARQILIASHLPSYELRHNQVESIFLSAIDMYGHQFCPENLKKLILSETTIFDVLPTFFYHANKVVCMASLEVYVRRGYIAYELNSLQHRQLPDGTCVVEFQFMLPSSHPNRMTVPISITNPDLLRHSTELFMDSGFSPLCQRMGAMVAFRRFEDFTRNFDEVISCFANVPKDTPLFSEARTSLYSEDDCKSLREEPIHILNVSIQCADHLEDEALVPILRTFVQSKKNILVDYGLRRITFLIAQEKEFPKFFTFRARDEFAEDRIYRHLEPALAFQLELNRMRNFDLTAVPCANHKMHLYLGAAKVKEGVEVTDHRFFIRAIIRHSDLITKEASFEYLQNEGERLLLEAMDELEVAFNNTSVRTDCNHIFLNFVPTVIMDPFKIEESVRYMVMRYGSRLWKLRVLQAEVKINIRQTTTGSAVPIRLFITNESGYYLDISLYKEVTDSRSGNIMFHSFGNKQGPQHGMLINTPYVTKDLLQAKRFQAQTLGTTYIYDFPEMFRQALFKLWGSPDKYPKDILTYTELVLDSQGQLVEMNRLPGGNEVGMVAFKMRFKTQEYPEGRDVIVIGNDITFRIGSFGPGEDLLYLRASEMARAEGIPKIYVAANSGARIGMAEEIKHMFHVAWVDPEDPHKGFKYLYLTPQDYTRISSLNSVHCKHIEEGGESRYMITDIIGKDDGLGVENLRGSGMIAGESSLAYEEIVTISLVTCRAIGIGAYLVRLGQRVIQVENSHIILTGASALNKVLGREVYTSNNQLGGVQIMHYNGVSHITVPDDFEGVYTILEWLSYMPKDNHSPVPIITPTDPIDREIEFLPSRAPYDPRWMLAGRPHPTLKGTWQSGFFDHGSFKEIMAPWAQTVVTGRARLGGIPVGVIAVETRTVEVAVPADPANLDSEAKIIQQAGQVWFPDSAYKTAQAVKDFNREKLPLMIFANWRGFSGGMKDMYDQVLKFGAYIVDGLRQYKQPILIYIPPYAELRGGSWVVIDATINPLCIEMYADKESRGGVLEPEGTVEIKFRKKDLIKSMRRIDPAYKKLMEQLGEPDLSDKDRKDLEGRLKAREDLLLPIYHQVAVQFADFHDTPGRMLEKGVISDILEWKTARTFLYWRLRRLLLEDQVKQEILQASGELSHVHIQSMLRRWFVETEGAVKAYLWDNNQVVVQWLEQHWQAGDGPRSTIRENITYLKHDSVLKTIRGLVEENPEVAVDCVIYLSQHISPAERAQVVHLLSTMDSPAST
- assay.details: Acetyl-CoA carboxylase enzyme assay (malonyl-CoA formation by LC/MS/MS)
- Type: biochemical
- conditions: recombinant human ACC2 (aa 144-2458); read-out: IC50 ACC2
pIC50: −log10 of the molar value.
measured.attribute: pIC50

| compound | experimental.system | measured.attribute | modifier.sign | quantitative.readout |
| --- | --- | --- | --- | --- |
| CC(C)[C@H]1COCCN1C(=O)[C@H]1CC[C@H](NS(=O)(=O)c2ccc3cc(C4CC4)n(C)c3c2)CC1 | human acetyl-CoA carboxylase 2 (ACC2) (Homo sapiens, UniProt O00763) | pIC50 | = | 7.15 |
| CC(NC(=O)C1CCC(NS(=O)(=O)c2cnc3c(c2)NC2CCCCC2N3)CC1)c1ccc(F)cc1 (stereo not shown) | human acetyl-CoA carboxylase 2 (ACC2) (Homo sapiens, UniProt O00763) | pIC50 | = | 6.90 |
| CC(C)COC(=O)N1CCNc2ccc(S(=O)(=O)N[C@H]3CC[C@H](C(=O)N[C@H](C)c4ccc(F)cc4)CC3)cc21 | human acetyl-CoA carboxylase 2 (ACC2) (Homo sapiens, UniProt O00763) | pIC50 | = | 7.82 |
| COC(=O)c1ccc(COC(=O)[C@H]2CC[C@H](NS(=O)(=O)c3ccc4nc(-c5ccccc5)[nH]c4c3)CC2)cc1 | human acetyl-CoA carboxylase 2 (ACC2) (Homo sapiens, UniProt O00763) | pIC50 | = | 5.75 |
| Cn1c(CCC(=O)O)cc2ccc(S(=O)(=O)N[C@H]3CC[C@H](C(=O)N4CCCC4c4ccc(F)cc4)CC3)cc21 (stereo partly shown) | human acetyl-CoA carboxylase 2 (ACC2) (Homo sapiens, UniProt O00763) | pIC50 | = | 6.57 |
| CC(C)(C)c1nnc([C@H]2CC[C@H](NS(=O)(=O)c3ccc4[nH]c(-c5ccc(Cl)cc5)nc4c3)CC2)o1 | human acetyl-CoA carboxylase 2 (ACC2) (Homo sapiens, UniProt O00763) | pIC50 | = | 5.91 |
| C[C@@H](NC(=O)[C@H]1CC[C@H](NS(=O)(=O)c2ccc3c(c2)Cc2ccccc2-3)CC1)c1ccc(F)cc1 | human acetyl-CoA carboxylase 2 (ACC2) (Homo sapiens, UniProt O00763) | pIC50 | = | 8.00 |
| O=C1NCCCCC1NC(=O)[C@H]1CC[C@H](NS(=O)(=O)c2ccc3cc(-c4ccccc4)[nH]c3c2)CC1 (stereo partly shown) | human acetyl-CoA carboxylase 2 (ACC2) (Homo sapiens, UniProt O00763) | pIC50 | = | 8.00 |
| C[C@@H]1CNc2ncc(S(=O)(=O)N[C@H]3CC[C@H](C(=O)N[C@H](C)c4ccc(F)cc4)CC3)cc2N1 | human acetyl-CoA carboxylase 2 (ACC2) (Homo sapiens, UniProt O00763) | pIC50 | = | 6.67 |
| Cn1c(-c2ccccc2)cc2ccc(S(=O)(=O)N[C@H]3CC[C@H](C(=O)N4CCCCC4)CC3)cc21 | human acetyl-CoA carboxylase 2 (ACC2) (Homo sapiens, UniProt O00763) | pIC50 | = | 7.02 |
| Cn1ccc2cc(S(=O)(=O)NC3CCC(C)(C(=O)N4CCOCC4)CC3)ccc21 (stereo not shown) | human acetyl-CoA carboxylase 2 (ACC2) (Homo sapiens, UniProt O00763) | pIC50 | = | 6.04 |
| Cc1cc(-c2ccc3cc(S(=O)(=O)N[C@H]4CC[C@H](C(=O)N5CCNC[C@H]5c5ccccc5)CC4)ccc3n2)cc(C)n1 | human acetyl-CoA carboxylase 2 (ACC2) (Homo sapiens, UniProt O00763) | pIC50 | = | 7.30 |
| C[C@@H](NC(=O)[C@H]1CC[C@H](NS(=O)(=O)c2ccc3[nH]c(CC(=O)O)nc3c2)CC1)c1ccc(F)cc1 | human acetyl-CoA carboxylase 2 (ACC2) (Homo sapiens, UniProt O00763) | pIC50 | = | 6.91 |
| Cn1c(-c2ccccc2)cc2ccc(S(=O)(=O)N[C@H]3CC[C@H](C(=O)N4CC5(CN(C(=O)OC(C)(C)C)C5)C4)CC3)cc21 | human acetyl-CoA carboxylase 2 (ACC2) (Homo sapiens, UniProt O00763) | pIC50 | = | 7.12 |
| CC(C)[C@H]1COCCN1C(=O)[C@H]1CC[C@H](NS(=O)(=O)c2ccc3nc(N4CCN(C)CC4)ccc3c2)CC1 | human acetyl-CoA carboxylase 2 (ACC2) (Homo sapiens, UniProt O00763) | pIC50 | = | 5.53 |
| O=C([C@H]1CC[C@H](NS(=O)(=O)c2cnc3ccccc3c2)CC1)N1CCCCC1c1ccccc1 (stereo partly shown) | human acetyl-CoA carboxylase 2 (ACC2) (Homo sapiens, UniProt O00763) | pIC50 | = | 6.47 |
| CCOc1ccc2cc(S(=O)(=O)N[C@H]3CC[C@H](C(=O)N[C@H](COP(=O)(O)O)c4ccccc4)CC3)ccc2n1 | human acetyl-CoA carboxylase 2 (ACC2) (Homo sapiens, UniProt O00763) | pIC50 | = | 4.60 |
| Cn1c(-c2ccccc2)cc2ccc(S(=O)(=O)N[C@H]3CC[C@H](C(=O)N[C@@H](c4ccccc4)C(C)(C)CO)CC3)cc21 | human acetyl-CoA carboxylase 2 (ACC2) (Homo sapiens, UniProt O00763) | pIC50 | > | 8.00 |
| C[C@@H](NC(=O)[C@H]1CC[C@H](NS(=O)(=O)c2ccc3nc(NCCN(C)C)ccc3c2)CC1)c1ccc(F)cc1 | human acetyl-CoA carboxylase 2 (ACC2) (Homo sapiens, UniProt O00763) | pIC50 | = | 6.90 |
| C[C@@H]1C[C@H](C)CN(C(=O)[C@H]2CC[C@H](NS(=O)(=O)c3ccc4[nH]c(-c5ccccc5)nc4c3)CC2)C1 | human acetyl-CoA carboxylase 2 (ACC2) (Homo sapiens, UniProt O00763) | pIC50 | = | 7.52 |
| CC(C)OC(=O)c1ccc(NS(=O)(=O)c2ccc3[nH]c(Nc4ccccc4)nc3c2)cc1 | human acetyl-CoA carboxylase 2 (ACC2) (Homo sapiens, UniProt O00763) | pIC50 | = | 6.62 |
| C[C@@H](NC(=O)[C@H]1CC[C@H](NS(=O)(=O)c2cnc3ccccc3c2)CC1)c1ccccc1F | human acetyl-CoA carboxylase 2 (ACC2) (Homo sapiens, UniProt O00763) | pIC50 | = | 6.73 |

* * *

- experimental.system: human acetyl-CoA carboxylase 2 (ACC2) (Homo sapiens, UniProt O00763)
- Construct: The cDNA encoding amino acids 144 to 2458 of human acetyl-CoA carboxylase 2; made in house; host or cells: Sf9 insect cells (baculovirus, pFastBac1)
- assay.details: Acetyl-CoA carboxylase enzyme assay (malonyl-CoA formation by LC/MS/MS)
- Format: biochemical
- conditions: recombinant human ACC2 (aa 144-2458); read-out: IC50 ACC2
pIC50: −log10 of the molar value.

| molecule | pIC50 |
| --- | --- |
| C[C@@H](NC(=O)[C@H]1CC[C@H](NS(=O)(=O)c2ccc3nc(N(C)C)ccc3c2)CC1)c1ccc(F)cc1 | 7.03 |
| COCCOc1ccc(-c2cc3ccc(S(=O)(=O)N[C@H]4CC[C@H](C(=O)N5CCC[C@@H]5C(C)(C)O)CC4)cc3n2C)cc1 | 7.10 |
| CCN(C)C(=O)[C@H]1CC[C@H](NS(=O)(=O)c2ccc3cc(-c4ccc(CO)cc4)n(C)c3c2)CC1 | 7.00 |
